Test: PSAC antagonists in infected red cells, primary screen, cell-based, P. falciparum Indochina, OD700, 2 h (AID 1155);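 note: lysis reports solute entry through the parasite surface anion channel PSAC; channel blockers reduce lysis of infected cells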
Conditions: P. falciparum Indochina infected erythrocytes, osmotic lysis OD700; higher = more signal, called active from +8 up or from −8 down
measurement.label: z-score
Answers are plain numbers.

compound	z-score
CN(C)CCCNC(=O)[C@@]1(Cc2ccccc2I)c2ccccc2C(=O)N(Cc2ccccc2C(F)(F)F)[C@H]1c1ccc(CO)cc1	1.49
CC(c1ccccc1)C(O)C1C=CC2C(=O)NC(=O)C2N1Nc1ccccn1 (configuration not stated)	0.561
COCCOC(=O)N1C(=O)[C@@]2(c3ccccc31)[C@H](C(=O)NC[C@H](O)c1ccccc1)[C@H]1C(=O)O[C@H](c3ccccc3)[C@H](c3ccccc3)N1[C@@H]2c1ccc(OCCO)cc1	1.89
NCCCCCCNC(=O)[C@H]1C[C@H]2C(=O)NCC(=O)N2[C@H]1c1cccc(OCCO)c1	-0.0225
CCN(CC)c1ccc(N2CC=CC34O[C@@H]5/C=C\CCCOC(=O)C5[C@H]3C(=O)N(C(CO)C(C)C)[C@@H]4C2=O)cc1 (some centres not stated)	0.486
O=C1C[C@@](C(=O)NC2CC2)(c2ccc([N+](=O)[O-])cc2)[C@@H](c2ccc(CO)cc2)N1CC12CC3CC(CC(C3)C1)C2	-0.135

Now for another entry.
[in] Indicate the recorded z-score value for this compound: C=CCNC(=O)[C@@H]1[C@H]2C(=O)O[C@H](c3ccccc3)[C@H](c3ccccc3)N2[C@H](c2ccc(O)cc2)[C@@]12C(=O)N(C(=O)OCCOC)c1ccccc12
[out] -0.27

###

Target: E3 ubiquitin-protein ligase XIAP (Homo sapiens)
Assay: XIAP binders, primary screen, biophysical, small-molecule microarray, fluorescence 635 nm (AID 1181);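 note: score merges 667 nm emission and signal to noise over triplicate slides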
Conditions: small-molecule microarray binding, higher = more signal
Label scheme for composite z-score: lower than 0.02 is condition not met, 0.02 and above is condition met.

Solved entries (count: 5):
compound	cat
O=C1O[C@@H](c2ccccc2)[C@@H](c2ccccc2)N2[C@@H](c3ccc(O)cc3)[C@]3(C(=O)Nc4ccc(C#CC5=CCCCC5)cc43)[C@@H](C(=O)O)[C@H]12	condition met
CC(C)C(=C=CC[C@H](O)c1cccc(OCCO)c1)C[C@H](O)COCc1ccccc1	condition not met
[N-]=[N+]=NCc1ccccc1[C@@H]1OC(c2ccc(OCCCO)cc2)=N[C@]1(Cc1ccccc1N=[N+]=[N-])C(=O)NCc1ccccc1	condition met
CCOC(=O)C1=C[C@@H](CC)N(S(=O)(=O)c2ccc(C)cc2)[C@H]1c1ccccc1	condition met
CC1=C2[C@@H](CCc3ccccc3)OB(O)C[C@@H]2n2c(=O)n(-c3ccccc3)c(=O)n2C1	condition not met

[in] Record O=C(CCN1CCOCC1)c1cccc(O)c1 ; criterion: composite z-score no lower than 0.02. Met?
[out] condition met

[in] Record O=C(NCc1ccccc1)[C@]1(CCS(=O)(=O)c2ccccc2)N=C(c2ccc(OCCCO)cc2)O[C@@H]1c1ccccc1 ; criterion: composite z-score no lower than 0.02. Met?
[out] condition met

[in] Record CC(=O)NCCCC[C@@H]1NC(=O)[C@H]2C[C@@H](C(=O)NCCCCCC[N+](C)(C)C)[C@@H](c3cccc(OCCO)c3)N2C1=O ; criterion: composite z-score no lower than 0.02. Met?
[out] condition met

[in] Record CCOC(=O)C1=CCC(C(C)(C)C)N(S(=O)(=O)c2ccc(C)cc2)C1 (stereo unspecified) ; criterion: composite z-score no lower than 0.02. Met?
[out] condition not met

[in] Record CC(C)(C)OC(=O)CC[C@]1(C(=O)N2CCCCC2)N=C(c2ccc(OCCCO)cc2)O[C@H]1c1ccccc1N=[N+]=[N-] ; criterion: composite z-score no lower than 0.02. Met?
[out] condition not met
